Value source: paper PMC11480844

B1: H2-Kb / Ed40 (parent complex)
chain 1: GDSVTQTEGPVTVSESESLIINCTYSATSIAYPNLFWYVRYPGEGLQLLLKVITAGQKGSSRGFEATYNKETTSFHLQKASVQESDSAVYYCALGDGYTGNYKYVFGAGTRLKVIA
chain 2: DSGVVQSPRHIIKEKGGRSVLTCIPISGHSNVVWYQQTLGKELKFLIQHYEKVERDKGFLPSRFSVQQFDDYHSEMNMSALELEDSAMYFCASSGASAETLYFGSGTRLTVL
chain 3: not shown
chain 4: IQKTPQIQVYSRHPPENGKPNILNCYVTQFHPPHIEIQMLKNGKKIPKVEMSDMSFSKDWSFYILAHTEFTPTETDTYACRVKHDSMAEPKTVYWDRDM
chain 5: SIINFEKL

# Variants of: B1
# PROCEDURE DETAILS: % of reporter cells activated (NFAT-GFP), raw; further: test concentration or dose not given here
Mark each entry YES if its ratio to parent sits below 0.8, and NO for all others.

{"columns": ["VARIANT DESCRIPTION", "ASSIGNED LABEL"],
 "data": [
  ["chain 5 N4I", "YES"],
  ["chain 5 I3Y", "YES"],
  ["chain 5 L8G", "YES"],
  ["chain 5 F5W", "NO"],
  ["chain 5 F5T", "NO"],
  ["chain 5 S1P", "YES"],
  ["chain 5 K7Y", "YES"],
  ["chain 5 K7H", "YES"],
  ["chain 5 F5Y", "NO"],
  ["chain 5 I2W", "YES"],
  ["chain 5 K7L", "YES"],
  ["chain 5 I3V", "YES"],
  ["chain 5 I3G", "YES"],
  ["chain 5 E6R", "YES"],
  ["chain 5 S1C", "YES"]
]}
